Heads up, these compounds all have pKi values measured for Plasmepsin II (Plasmodium falciparum).
pKi: −log10 of the molar value.
assay_endpoint: pKi

compound: CCCCNC(=O)CC(O)C(CC(C)C)NC(=O)C(NC(=O)COc1ccc2ccccc2c1)c1ccccc1 (stereo unspecified)
pKi: 6.25

compound: CCC(C)C(NC(=O)CN1CCC(C(N)=O)(c2ccccc2)CC1)C(=O)NC(CC(C)C)C(O)CC(=O)NCCCc1ccccc1 (stereo unspecified)
pKi: 6.22

compound: CCCCNC(=O)CC(O)C(Cc1ccccc1)NC(=O)C(NC(=O)Cc1ccc2ccccc2c1)C(C)CC (stereo unspecified)
pKi: 7.30

[A] CCCCNC(=O)C[C@H](O)[C@H](Cc1ccccc1)NC(=O)[C@@H](NC(=O)COc1ccc2ccccc2c1)C(C)CC (stereo partly specified)
[B] CCCCNC(=O)CC(O)C(Cc1ccccc1)NC(=O)C(Cc1ccccc1)NC(=O)COc1ccc2ccccc2c1 (stereo unspecified)
Req: Please state the entry with greater pKi among A and B . Respond using the label that marks the chosen record.
Resp: A
(A: 6.96, B: 4.92)

// provenance: ChEMBL document CHEMBL1148458
